B1: Twister Ribozyme (parent)
chain: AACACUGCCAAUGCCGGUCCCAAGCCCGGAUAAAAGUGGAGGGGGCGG

variants of: B1; experiment: self-cleavage, relative activity (ratio to wild type); higher = more cleavage; co-transcriptional
# self-cleavage values compiled below

{"mutant": "U18A A33G", "self-cleavage": 0.203}
{"mutant": "A11G C27U", "self-cleavage": 0.405}
{"mutant": "G36A U37A", "self-cleavage": 0.166}
{"mutant": "G39C G47C", "self-cleavage": 0.167}
{"mutant": "A22C A23G", "self-cleavage": 0.341}
{"mutant": "A10G C21A", "self-cleavage": 0.137}
{"mutant": "C14G A23C", "self-cleavage": 0.0556}
{"mutant": "A1C G24C", "self-cleavage": 0.168}
{"mutant": "G29U A33U", "self-cleavage": 0.911}
